# System under test: Microphthalmia-associated transcription factor (Homo sapiens)
# Method summary: MITF inhibitors, potency by titration, dose response, biochemical, AlphaScreen, human (AID 1259371)
# Measurement setup: AlphaScreen biochemical MITF assay, signal inhibition
Active and inactive are the calls of the source. No rule for the calls is given here.
Value kind: IC50

Compound	Observed
O=C(O)C1CC=CCC1C(=O)Nc1nncs1 (configuration not stated)	inactive
CNC(=O)COc1cc(-c2cn[nH]c2)ccc1NC(=O)C1COc2ccc(OC)cc2C1 (configuration not stated)	inactive
CC(C)NC(=O)/C(C#N)=C/c1ccc(-c2ccc([N+](=O)[O-])cc2Br)o1	0.314 µM
CCC[C@@H]1NC(=O)[C@H]2CN(C(=O)NCc3ccccc3)CCN2C1=O	0.826 µM
Cc1cccc(CN2CCN(C3CCC(C)CC3)CC2)c1 (configuration not stated)	> 5.54 µM (inactive)
CCOC(=O)Cc1[nH]nc2c1C1(C(=O)N(CC)c3ccccc31)C(C#N)=C(N)O2 (configuration not stated)	> 6.48 µM (inactive)
Cc1ccc(N2C(=O)C3C(C2=O)C2(CO)C=CC3(C)O2)cc1[N+](=O)[O-] (configuration not stated)	> 6.48 µM (inactive)
C[C@@H](OCc1ccccc1)[C@@H]1NC(=O)[C@H]2CN(C(=O)NCc3ccccc3)CCN2C1=O	inactive
O=C(O)c1cc(N=Cc2ccco2)ccc1O	0.778 µM
N#CC(C#N)=C(N)/C(C#N)=C/c1ccc([N+](=O)[O-])o1	0.467 µM

So, `O=C1N[C@@H](CSCc2ccccc2)C(=O)N2CCN(C(=O)NC3CCCCC3)C[C@H]12` ? Its IC50 was inactive

So, `O=C(O)c1cc(-n2cccc2)ccc1Cl` ? Its IC50 was 0.268 µM

So, `COc1cc(OC)c(OC)cc1CN1CCN(Cc2ccc(C)cc2)CC1` ? Its IC50 was > 5.76 µM (inactive)

So, COc1ccc2c(c1)C1NC(=S)N(c3cccc(C)c3)C(C)(O2)C1C(=O)Nc1ccc(C)cc1C (configuration not stated) ? Its IC50 was > 5.71 µM (inactive)

So, `C[C@H]1C(=O)N2CCN(C(=O)NCc3ccccc3)C[C@@H]2C(=O)N1C` ? Its IC50 was inactive

----------
# System under test: Microphthalmia-associated transcription factor (Homo sapiens) (UniProt O75030)
# Sequence (O75030 whole entry, looked up): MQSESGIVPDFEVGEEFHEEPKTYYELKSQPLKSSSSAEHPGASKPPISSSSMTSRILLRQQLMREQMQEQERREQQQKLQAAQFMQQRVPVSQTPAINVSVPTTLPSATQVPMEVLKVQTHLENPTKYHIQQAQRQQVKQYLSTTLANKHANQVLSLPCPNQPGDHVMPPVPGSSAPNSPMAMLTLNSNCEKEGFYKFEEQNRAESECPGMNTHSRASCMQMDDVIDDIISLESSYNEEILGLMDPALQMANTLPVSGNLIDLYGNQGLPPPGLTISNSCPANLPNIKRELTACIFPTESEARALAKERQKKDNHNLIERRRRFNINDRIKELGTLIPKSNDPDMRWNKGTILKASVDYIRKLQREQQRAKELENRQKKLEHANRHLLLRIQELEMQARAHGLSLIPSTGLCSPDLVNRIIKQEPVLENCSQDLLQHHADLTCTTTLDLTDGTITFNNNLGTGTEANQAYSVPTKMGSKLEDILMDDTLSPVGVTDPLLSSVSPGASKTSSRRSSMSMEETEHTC
# Method summary: MITF inhibitors, potency by titration, dose response, biochemical, AlphaScreen, human (AID 1259371)
# Measurement setup: AlphaScreen biochemical MITF assay, signal inhibition
The source made the active and inactive calls. No rule for the calls is given here.
Value kind: IC50

Some compounds with recorded IC50:
Structure	IC50
CCN(CC)C(=S)NC(=O)/C=C/c1ccco1	89.4 nM
COc1ccc(C[C@@H]2NC(=O)[C@H]3CN(C(=O)NC4CCCCC4)CCN3C2=O)cc1	inactive
Cc1ccc(-c2nnc3s/c(=C\c4ccco4)c(=O)n23)cc1	inactive
Cc1ccc(NC(=O)COC(=O)CCC(=O)Nc2sc3c(c2C(N)=O)CCC3)cc1F	inactive
COC(=O)CSc1nnc(-c2ccco2)n1Cc1ccco1	99.3 nM
Cn1nnc(-c2ccc(Nc3nccc(-c4ccc5nc(C6CC6)[nH]c(=O)c5c4)n3)cc2)n1	inactive
COc1ccc(C)cc1NS(=O)(=O)c1ccc2c(c1)CCC(=O)N2	inactive
O=C(NC1CCCCC1)N1CCN2C(=O)[C@@H]3C[C@@H](O)CN3C(=O)[C@H]2C1	inactive
C[C@@H](O)[C@@H]1NC(=O)[C@H]2CN(C(=O)NC3CCCCC3)CCN2C1=O	inactive
O=C(O)c1coc(CNC(=O)c2cocc2C(=O)O)c1	inactive

So, `O=[N+]([O-])c1ccc(Br)c2c1no[n+]2[O-]` ? Its IC50 was inactive

So, `CC(C)(C)c1ccc(OCCn2cncn2)c(Cl)c1` ? Its IC50 was > 6480 nM (inactive)

So, `CN(Cc1ccco1)S(=O)(=O)c1ccc2[nH]cc(C(=O)O)c(=O)c2c1` ? Its IC50 was inactive

So, `O=C1N[C@@H](COCc2ccccc2)C(=O)N2CCN(C(=O)NCc3ccccc3)C[C@H]12` ? Its IC50 was inactive

So, `Cc1nnc(CNC(=O)c2ccc(-n3cccc3)cc2)o1` ? Its IC50 was inactive

So, `COc1ccc(S(=O)(=O)CCC(=O)Nc2nc3ccc(OC)cc3s2)cc1` ? Its IC50 was > 4550 nM (inactive)

So, `O=c1cc(/C=C/c2ccc(O)cc2)nc2nn[nH]n12` ? Its IC50 was inactive

So, `O=S(=O)(O)c1ccc(N/N=C2\CCc3ccccc32)cc1` ? Its IC50 was > 2160 nM (inactive)

So, `Cc1cc2c(c(=O)[nH]1)C(=O)O/C2=C\c1ccc(C)o1` ? Its IC50 was 333 nM

So, `O=C(Nc1ccc(Oc2ccccc2)cc1)c1ccnc(-c2cccs2)c1` ? Its IC50 was > 6710 nM (inactive)

So, `Nc1cc2c(S(=O)(=O)O)cc(S(=O)(=O)O)cc2cc1S(=O)(=O)O` ? Its IC50 was > 6480 nM (inactive)

So, `Cc1cc(NC(=O)C2CCN(C(=O)c3ccc(-n4cccc4)cc3)CC2)no1` ? Its IC50 was inactive

----------
# System under test: Microphthalmia-associated transcription factor (Homo sapiens) (UniProt O75030)
# Method summary: MITF inhibitors, potency by titration, dose response, biochemical, AlphaScreen, human (AID 1259371)
# Measurement setup: AlphaScreen biochemical MITF assay, signal inhibition
Activity calls are given as the source filed them. The rule behind the calls is not given here.
Value kind: IC50

Some compounds with recorded IC50:
Compound	Observed
CCOC(=O)C1C2NC(=S)N(c3ccc(C)cc3)C1(C)Oc1c(OCC)cccc12 (centres undefined)	> 4890 nM (inactive)
O=C(Nc1ccc(N2CCOCC2)cc1)c1ccc2nc(Nc3ccccn3)sc2c1	537 nM
Oc1ccc2c(c1)C1CCCC1(N1CCOCC1)O2 (centres undefined)	inactive
O=C(Nc1ccc(N2CCOCC2)cc1)c1cccc(Nc2ccncn2)n1	inactive
CCN1CCN(CCOCCOc2ccc(F)cc2)CC1	> 6480 nM (inactive)
C=CCNC(=O)COC(=O)c1cc(-c2ccco2)nc2ccccc12	> 2310 nM (inactive)
O=c1c(O)c(-c2ccc(O)cc2O)oc2cc(O)cc(O)c12	inactive
Cc1n[nH]c(=O)nc1NNc1ccc(C(=O)O)cc1	inactive
O=C1N[C@H](CO)C(=O)N2CCN(C(=O)NCc3ccccc3)C[C@H]12	526 nM
COc1cccc(COC(=O)Nc2cc(F)c(-c3cn[nH]c3)cc2OCCN(C)C)c1	inactive

Microphthalmia-associated transcription factor (Homo sapiens) (UniProt O75030) IC50 of CN(C)/C=C/C=C/C(=O)C1CCC/C(=C\C=C\N(C)C)C1=O (centres undefined) is 85 nM

Microphthalmia-associated transcription factor (Homo sapiens) (UniProt O75030) IC50 of Cc1cncc2c(S(=O)(=O)N3CC[C@@H](NC(=O)C(O)c4ccc(F)cc4F)C3)cccc12 (some centres undefined) is inactive

Microphthalmia-associated transcription factor (Homo sapiens) (UniProt O75030) IC50 of `COc1cc(-c2ccnc(N)n2)ccc1NC(=O)[C@H]1COc2ccccc2O1` is inactive

Microphthalmia-associated transcription factor (Homo sapiens) (UniProt O75030) IC50 of `O=c1[nH]cnc2nc(-c3ccco3)c(-c3ccco3)nc12` is 79.7 nM

Microphthalmia-associated transcription factor (Homo sapiens) (UniProt O75030) IC50 of `O=C(O)c1ccccc1-c1ccc(/C=C/[N+](=O)[O-])o1` is 460 nM

Microphthalmia-associated transcription factor (Homo sapiens) (UniProt O75030) IC50 of CC1=NC(=S)C2C(=O)O/C(=C/c3ccc(-c4cccc([N+](=O)[O-])c4)o3)C2=C1 (centres undefined) is inactive

Microphthalmia-associated transcription factor (Homo sapiens) (UniProt O75030) IC50 of `COc1cc(/C=C2\C(C)=C([N+](=O)[O-])CS2(=O)=O)ccc1O` is 30.8 nM

----------
# System under test: Microphthalmia-associated transcription factor (Homo sapiens)
# Method summary: MITF inhibitors, potency by titration, dose response, biochemical, AlphaScreen, human (AID 1259371)
# Measurement setup: AlphaScreen biochemical MITF assay, signal inhibition
Active and inactive are the calls of the source. No rule for the calls is given here.
Hello, when you answer, please use one of the following outcomes: active, inactive

# count of solved cases: 4
Compound	Cat
Cc1cc(OCCOCCN2CCNCC2)ccc1Cl	inactive
C=CCc1cc(Cl)ccc1OCCOCCNCCOC	inactive
COC(=O)c1c(NC(=O)c2ccc([N+](=O)[O-])o2)sc(Cc2ccc3c(c2)OCO3)c1C	inactive
O=[N+]([O-])c1c(Br)ccc2c1no[n+]2[O-]	inactive

Query: Short answer needed: outcome of this test for `O=C1N[C@H](Cc2ccc(O)cc2)C(=O)N2CCN(C(=O)NCc3ccccc3)C[C@H]12` ?
Reply: inactive

Query: Short answer needed: outcome of this test for `COc1ccc2c3c(cccc13)C(=O)N(C)C2=O` ?
Reply: inactive

Query: Short answer needed: outcome of this test for `C[C@H]1C(=O)N2CCN(C(=O)NC3CCCCC3)C[C@@H]2C(=O)N1C` ?
Reply: inactive

Query: Short answer needed: outcome of this test for COc1ccc2c(c1)CC(c1nc(Nc3ccc4cnccc4c3)c3ccccc3n1)CO2 (stereo unspecified) ?
Reply: inactive

Query: Short answer needed: outcome of this test for `O=C1OC(c2ccc(Cl)cc2Cl)=N/C1=C\c1ccc([N+](=O)[O-])o1` ?
Reply: inactive

Query: Short answer needed: outcome of this test for `O=C(/C=C/c1ccco1)NC(=S)NNC(=O)c1ccccc1O` ?
Reply: inactive

Query: Short answer needed: outcome of this test for `C[C@H](O)[C@H]1NC(=O)[C@H]2CN(C(=O)NCc3ccccc3)CCN2C1=O` ?
Reply: inactive
